Let's look at some molecules and their measured %Inh.
tested on: ERK8; construct: gene MAPK15; conditions: concentration: 1 μM, replicates: in singlicate; n = 1;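 note: KINOMEscan kinase panel screen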
recordedEndpoint: %Inh (%)

INSERT INTO measurements (molecule, quantityunit, valueobserved) VALUES
  ('COC(=O)Nc1nc2cc(Oc3ccc(NC(=O)Nc4cccc(SC)c4)cc3)ccc2[nH]1.Cl', '%', 55),
  ('CN1CCN(Cc2ccc(NC(=O)Nc3ccc(N(C)c4ccnc(Nc5ccc(CS(C)(=O)=O)cc5)n4)cc3)cc2)CC1.Cl', '%', 78),
  ('COc1cccc(NC(=O)NCCNc2ccnc(Nc3ccc(F)cc3)n2)c1', '%', 0),
  ('O=C(Nc1n[nH]c2nc(-c3cccc(O)c3)ccc12)C1CC1', '%', 42),
  ('CCOc1nccc(-c2c(-c3ccc(F)cc3)ncn2C2CCNCC2)n1', '%', 2),
  ('Nc1ncc(-c2cn[nH]c2)c2scc(-c3ccc4c(c3)CCN4C(=O)Cc3ccccc3)c12', '%', 10),
  ('Cc1cccc(Nc2nc(NCCN)ncc2C(N)=O)c1', '%', 0),
  ('N#Cc1cnc2cc(-c3cnc(CNCCN4CCOCC4)s3)ccc2c1Nc1ccc(Oc2ccccc2)cc1', '%', 0),
  ('Cn1cc(-c2ccc3c(c2)CCN3C(=O)Cc2cc(F)cc(F)c2F)c2c(N)ncnc21', '%', 0),
  ('O=C(Nc1n[nH]c2cc(-c3cccs3)ccc12)C1CC1', '%', 85),
  ('CN(c1ccc(NC(=O)Nc2cccc(Cl)c2)cc1)c1ccnc(N)n1.Cl', '%', 6),
  ('Cl.O=C(Nc1ccc(Oc2ccc3[nH]c(NC(=O)c4ccco4)nc3c2)cc1)Nc1cc(C(F)(F)F)ccc1F', '%', 82),
  ('Nc1cccc(-c2ccc3c(N)n[nH]c3c2)c1', '%', 15),
  ('CN(c1ccc(NC(=O)N2CCN(CCCN3CCOCC3)CC2)cc1)c1ccnc(Nc2ccc(CS(C)(=O)=O)cc2)n1.Cl', '%', 0),
  ('COc1ccc(C2=C(Nc3cccc(O)c3)C(=O)NC2=O)cc1', '%', 15),
  ('COC(=O)Nc1nc2ccc(Oc3ccc(CC(=O)Nc4cc(C(F)(F)F)ccc4F)cc3)cc2[nH]1', '%', 0),
  ('Cc1ccc(O)cc1Nc1ccnc2cc(-c3ccc(CN4CCCCC4)o3)ccc12', '%', 0),
  ('CCNc1nccc(-c2c(-c3ccc(F)cc3)ncn2C2CCN(C)CC2)n1', '%', 4),
  ('CC(=O)Nc1cn2nc(Oc3cccc(NC(=O)c4cccc(C(F)(F)F)c4)c3)ccc2n1', '%', 19),
  ('NCCC(NC(=O)c1cc(Br)c(-c2ccnc3[nH]ccc23)s1)c1ccccc1.O=C(O)C(F)(F)F.O=C(O)C(F)(F)F (centres unmarked)', '%', 33),
  ('O=C1NC(=O)C(c2ccccc2Cl)=C1Nc1cccc(Cl)c1', '%', 61),
  ('Cc1ccc(NC(=O)c2ccnc(N3CCCCC3)c2)cc1-c1ccc(C(=O)NCC2CC2)cc1', '%', 0),
  ('Cc1ccc(NC(=O)c2ccc(Cl)c(Cl)c2)cc1-c1ccc(C(=O)Nc2ccncc2)cc1', '%', 0),
  ('CCn1cnc2c(NCc3ccccc3)ncnc21', '%', 4),
  ('COc1cccc(C2=C(Nc3cccc(O)c3)C(=O)NC2=O)c1', '%', 16),
  ('CN(c1ccc(F)c(NC(=O)c2cccc(OC(C)(C)C#N)c2Cl)c1)c1ccc2nc(NC(=O)C3CC3)sc2n1', '%', 0),
  ('CN(C)CCNS(=O)(=O)c1ccc(-c2ccnc3[nH]ccc23)cc1', '%', 0),
  ('c1ccc(Oc2ccc(Nc3ccnc4cc(-c5ccc(CN6CCCCC6)o5)ccc34)cc2)nc1', '%', 0),
  ('Cl.N#CCc1ccc(Nc2nccc(Nc3ccc(Oc4ccccc4)cc3)n2)cc1', '%', 35),
  ('COc1cccc2c(-c3ccncc3)c(-c3ccc(F)cc3)nn12', '%', 16),
  ('COc1cc(Nc2nccc(N3CCC(NC(=O)Nc4ccc5c(c4)OCO5)C3)n2)cc(OC)c1OC (centres unmarked)', '%', 0),
  ('Cc1ccc(-c2ccc3occ(-c4ccc(S(C)=O)cc4)c3c2)nn1 (centres unmarked)', '%', 1),
  ('CN(c1ccc2c(c1)nc(NCc1ccccc1)n2C)c1ccnc(Nc2ccc(CS(C)(=O)=O)cc2)n1.Cl', '%', 6),
  ('O=C(Nc1n[nH]c2nc(-c3ccccc3O)ccc12)C1CC1', '%', 82),
  ('Cc1cccc(Nc2nc(N[C@H]3CCCC[C@H]3N)ncc2C(N)=O)c1.Cl', '%', 0);
